Measured values drawn from patent US20050261264A1 for this set.

TEST_PROTOCOL: Number of moles of bound water per mole of complex (TG-DTA)
Format: physicochemical
CONDITION_PARAMETERS: Table 1; dried samples for the ternary complexes
QUANTITY_KIND: Bound water (number of moles of bound water per mole of complex)
Numbers only.

The cases that follow already have their Bound water (number of moles of bound water per mole of complex) on record.
{"COMPOUND": "O=S(=O)([N-]S(=O)(=O)C(F)(F)F)C(F)(F)F.O=S(=O)([N-]S(=O)(=O)C(F)(F)F)C(F)(F)F.O=S(=O)([N-]S(=O)(=O)C(F)(F)F)C(F)(F)F.[Nd+3].c1cnc2c(c1)ccc1cccnc12.c1cnc2c(c1)ccc1cccnc12.c1cnc2c(c1)ccc1cccnc12.c1cnc2c(c1)ccc1cccnc12", "RECORDED_NUMBER": 0.00}
{"COMPOUND": "O=P(c1ccccc1)(c1ccccc1)c1ccccc1.O=P(c1ccccc1)(c1ccccc1)c1ccccc1.O=P(c1ccccc1)(c1ccccc1)c1ccccc1.O=P(c1ccccc1)(c1ccccc1)c1ccccc1.O=P(c1ccccc1)(c1ccccc1)c1ccccc1.O=P(c1ccccc1)(c1ccccc1)c1ccccc1.O=P(c1ccccc1)(c1ccccc1)c1ccccc1.O=P(c1ccccc1)(c1ccccc1)c1ccccc1.O=S(=O)([N-]S(=O)(=O)C(F)(F)F)C(F)(F)F.O=S(=O)([N-]S(=O)(=O)C(F)(F)F)C(F)(F)F.O=S(=O)([N-]S(=O)(=O)C(F)(F)F)C(F)(F)F.[Yb+3]", "RECORDED_NUMBER": 0.27}

Ask | Look at this compound and give its reported Bound water (number of moles of bound water per mole of complex). O=C(C=C([O-])C(F)(F)F)C(F)(F)F.O=C(C=C([O-])C(F)(F)F)C(F)(F)F.O=C(C=C([O-])C(F)(F)F)C(F)(F)F.O=P(c1ccccc1)(c1ccccc1)c1ccccc1.O=P(c1ccccc1)(c1ccccc1)c1ccccc1.[Nd+3] [Nd(HFA)3(TPPO)2, reference compound]
Reply | 0.00
